// cross-source set; read-out = pIC50; system = Heat shock protein HSP 90-alpha (Homo sapiens, UniProt P07900)
In plain terms, pIC50 is the concentration in mol/L turned into minus its base-10 logarithm.

# example entries with known answers
- compound: "COc1c(C)cnc(Cn2cc(Cc3cccc(C(F)(F)F)c3)c3c(Cl)nc(N)nc32)c1C"
  reported-value: 5.06
- compound: "CC(C)c1cc(C(=O)N2Cc3ccc(NCc4ccc(C(=O)NO)cc4)cc3C2)c(O)cc1O"
  reported-value: 7.18
- compound: "CC(C)c1ccc(O)c(C(=O)N2Cc3ccccc3C2)c1"
  reported-value: 5.49
- compound: "CCc1c2c(nc3ccc(O)cc13)-c1cc3c(c(=O)n1C2)COC(=O)[C@@]3(CC)OC(=O)CNC(=O)CNc1cc(-n2nc(C(F)(F)F)c3c2CC(C)(C)CC3=O)ccc1C(N)=O"
  reported-value: 5.82
- compound: "NCC(=O)OC1CCC(Nc2cc(-c3nccc4c(-c5cnc6ccccc6c5)cccc34)ccc2C(N)=O)CC1 (stereo not drawn)"
  reported-value: 6.35

// fetch Heat shock protein HSP 90-alpha (Homo sapiens, UniProt P07900) pIC50 for `CCc1c2c(nc3ccc(O)cc13)-c1cc3c(c(=O)n1C2)COC(=O)[C@@]3(CC)OC(=O)CCNC(=O)CNc1cc(-n2nc(C(F)(F)F)c3c2CC(C)(C)CC3=O)ccc1C(N)=O`
5.77

For the record `Oc1ccc(-c2noc3cc(O)ccc23)c(O)c1` , what value of pIC50 is listed for Heat shock protein HSP 90-alpha (Homo sapiens, UniProt P07900)?
4.82

Hello, I am looking for reported pIC50 with Heat shock protein HSP 90-alpha (Homo sapiens, UniProt P07900) for `O=C(c1cc(-n2ccc3ccccc32)c(O)cc1O)N1CCc2ccccc2C1` . Could you help?
6.89

----------
Reported IC50 against Heat shock protein HSP 90-alpha (Homo sapiens), gathered from multiple publications, appears below.
Give just the number in nM; leave the unit off.

Value wanted: IC50 (Heat shock protein HSP 90-alpha (Homo sapiens)) of entry `COc1ncc(-c2cc(F)ccc2[C@H]2Cc3nc(N)nc(C)c3C(=O)N2)s1`
140

Hi! What's the reported IC50 for `CCOC(=O)Cn1nnc(-c2cc(CC)c(O)cc2O)c1-c1ccc(S(C)(=O)=O)cc1` on Heat shock protein HSP 90-alpha (Homo sapiens)?
304

Hi! What's the reported IC50 for `CCOc1cccc(-c2cc(F)ccc2[C@H]2Cc3nc(N)nc(C)c3C(=O)N2)n1` on Heat shock protein HSP 90-alpha (Homo sapiens)?
56

Form field: IC50 recorded for `COc1cc(C(N)=O)ccc1-n1nc(C(C)C)c2c(-n3cnc(-c4cnn(C)c4)c3)ccnc21` with Heat shock protein HSP 90-alpha (Homo sapiens) (enter value)
90

----------
pIC50: −log10 of the molar value.
Listing of pIC50 toward UniProt P07900, each taken from a published source.
Mark false (0) for pIC50 values under 7, and true (1) for everything at or above.

- smiles-code: "O=c1[nH]c2cc(CNS(=O)(=O)c3cccnc3)ccc2n1-c1cc(Cl)c(O)cc1O"
  test-target: "UniProt P07900"
  classification: "true (1)"
- smiles-code: "COc1nc(-c2cc(F)ccc2[C@H]2Cc3nc(N)nc(C)c3C(=O)N2)cnc1C"
  test-target: "UniProt P07900"
  classification: "true (1)"
- smiles-code: "Cn1cc(-c2cn(-c3cccc4c(-c5ccc(C(N)=O)c(NC6CCCCCC6)c5)nccc34)cn2)cn1"
  test-target: "UniProt P07900"
  classification: "false (0)"
- smiles-code: "Cc1ccc(Sc2cc(C(=O)N3Cc4ccc(OCC[N+](C)(C)[O-])cc4C3)ccc2O)cc1C"
  test-target: "UniProt P07900"
  classification: "false (0)"
- smiles-code: "COc1cccc(-c2ccc(F)cc2[C@H]2Cc3nc(N)nc(C)c3C(=O)N2)n1"
  test-target: "UniProt P07900"
  classification: "true (1)"

Decide: pIC50 of `COc1cc(F)c(Cl)cc1C(=O)c1ccc(OCc2ccccc2)cc1` >= 7?
false (0)

----------
Reported IC50 against Heat shock protein HSP 90-alpha (Homo sapiens, UniProt P07900), gathered from multiple publications, appears below.
Please state the figure in nM; there is no need to write the unit.

# example entries with known answers
- smiles-code: "COc1c(C)cnc(Cn2cc(Cc3cccc(C)c3)c3c(Cl)nc(N)nc32)c1C"
  reported-value: 51
- smiles-code: "CSc1nc(N)nc(-c2ccccc2)n1"
  reported-value: 31000
- smiles-code: "CCc1cc(-c2nnn(CC(=O)OC)c2-c2cccc(S(C)(=O)=O)c2)c(O)cc1O"
  reported-value: 154
- smiles-code: "COc1c(C)cnc(Cn2cc(Cc3ccc(Cl)cc3)c3c(Cl)nc(N)nc32)c1C"
  reported-value: 48

Form: Entry = `COc1cccc(-c2ccccc2[C@H]2Cc3nc(N)nc(C)c3C(=O)N2)n1` | System = Heat shock protein HSP 90-alpha (Homo sapiens, UniProt P07900) | IC50 = ____
19

// map `CC(C)c1cc(C(=O)N2Cc3ccccc3C2)ccc1O` to recorded IC50 (system: Heat shock protein HSP 90-alpha (Homo sapiens, UniProt P07900))
410

What IC50 appears in the records for this compound with Heat shock protein HSP 90-alpha (Homo sapiens, UniProt P07900)? `CC(C)c1cc(-c2nnn(CC(=O)O)c2-c2cccc(NS(C)(=O)=O)c2)c(O)cc1O`
767

Lookup: IC50 / Heat shock protein HSP 90-alpha (Homo sapiens, UniProt P07900) / `Cc1ccc(Sc2cc(C(=O)N3Cc4ccc(OCCCCN(C)C)cc4C3)ccc2O)cc1C`
790

API: value(readout=IC50, system=Heat shock protein HSP 90-alpha (Homo sapiens, UniProt P07900)) for record `O=C(c1cc(-n2ccc3cc(Br)ccc32)c(O)cc1O)N1Cc2ccccc2C1`
78

Entry `CC(C)c1cc(C(=O)N2Cc3ccc(NC(=O)CCCCCCC(=O)NO)cc3C2)c(O)cc1O` , system Heat shock protein HSP 90-alpha (Homo sapiens, UniProt P07900): what IC50 was measured?
43.9

Any idea what IC50 came out for `CN1CCN(C(=O)c2cc(-n3ccc4ccccc43)c(O)cc2O)CC1` on Heat shock protein HSP 90-alpha (Homo sapiens, UniProt P07900)?
630

// fetch Heat shock protein HSP 90-alpha (Homo sapiens, UniProt P07900) IC50 for `COc1cncc(-c2cc(F)ccc2[C@H]2Cc3nc(N)nc(C)c3C(=O)N2)n1`
10
